# assay.system: T1, RBFOX1 RRM (Homo sapiens, UniProt Q9NWB1 109-208)
# T1 sequence: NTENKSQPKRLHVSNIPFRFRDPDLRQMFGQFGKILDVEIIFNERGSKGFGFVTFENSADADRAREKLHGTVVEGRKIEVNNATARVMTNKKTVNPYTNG
# assay.details: EMSA; HiTS-Eq, 1 nM pool, 10 min; buffer printed only for the single-RNA assays: 10 mM Tris pH 7.5, 150 mM NaCl, 3.4 mM EDTA, 0.001% NP-40, 30 C
# condition: tags: His6 N-terminal (pET28a); label: 5' 32P
The full ranking holds about 16,000 sequences; the median of “ka relative to ugcaugu” is about 0.0091, and the highest 2% start at about 0.032. This excerpt belongs to a sample that is enriched for the highest values.
parameter: binding signal

• CGGGAUC (DNA:RNA) RNA: GGGAGACCGGAAUUCAGAUUGUCCCGGGAUCUUAAAUCCCGUCGUAGCCACCA DNA 1: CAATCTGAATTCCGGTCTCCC DNA 2: TGGTGGCTACGACGGGATT = 0.0318 KA relative to UGCAUGU
• GAGUCUC (DNA:RNA) RNA: GGGAGACCGGAAUUCAGAUUGUCCGAGUCUCUUAAAUCCCGUCGUAGCCACCA DNA 1: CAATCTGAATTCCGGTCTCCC DNA 2: TGGTGGCTACGACGGGATT = 0.032 KA relative to UGCAUGU
• UUCUGCU (DNA:RNA) RNA: GGGAGACCGGAAUUCAGAUUGUCCUUCUGCUUUAAAUCCCGUCGUAGCCACCA DNA 1: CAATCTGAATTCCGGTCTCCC DNA 2: TGGTGGCTACGACGGGATT = 0.0203 KA relative to UGCAUGU
• UGUGAUC (DNA:RNA) RNA: GGGAGACCGGAAUUCAGAUUGUCCUGUGAUCUUAAAUCCCGUCGUAGCCACCA DNA 1: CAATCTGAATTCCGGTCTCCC DNA 2: TGGTGGCTACGACGGGATT = 0.0227 KA relative to UGCAUGU
• GUUACCU (DNA:RNA) RNA: GGGAGACCGGAAUUCAGAUUGUCCGUUACCUUUAAAUCCCGUCGUAGCCACCA DNA 1: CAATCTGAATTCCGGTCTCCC DNA 2: TGGTGGCTACGACGGGATT = 0.00787 KA relative to UGCAUGU
• CCUUGGG (DNA:RNA) RNA: GGGAGACCGGAAUUCAGAUUGUCCCCUUGGGUUAAAUCCCGUCGUAGCCACCA DNA 1: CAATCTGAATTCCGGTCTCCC DNA 2: TGGTGGCTACGACGGGATT = 0.00389 KA relative to UGCAUGU
• GCGUUAG (DNA:RNA) RNA: GGGAGACCGGAAUUCAGAUUGUCCGCGUUAGUUAAAUCCCGUCGUAGCCACCA DNA 1: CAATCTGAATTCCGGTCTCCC DNA 2: TGGTGGCTACGACGGGATT = 0.0109 KA relative to UGCAUGU
• ACUCAGC (DNA:RNA) RNA: GGGAGACCGGAAUUCAGAUUGUCCACUCAGCUUAAAUCCCGUCGUAGCCACCA DNA 1: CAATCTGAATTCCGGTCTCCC DNA 2: TGGTGGCTACGACGGGATT = 0.00534 KA relative to UGCAUGU
• UACCUGU (DNA:RNA) RNA: GGGAGACCGGAAUUCAGAUUGUCCUACCUGUUUAAAUCCCGUCGUAGCCACCA DNA 1: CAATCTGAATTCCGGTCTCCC DNA 2: TGGTGGCTACGACGGGATT = 0.0129 KA relative to UGCAUGU

The reported numbers originate from paper PMC9911399.
